The origin of these recorded values is ChEMBL document CHEMBL4828714.

system: L02; experiment: Cytotoxicity against human L02 cells assessed as growth inhibition incubated for 68 hrs by MTT assay; type: cell-based; settings: L02, 68 h
// reported pIC50 per item
# pIC50 = -log10(concentration in molar units)

Guide cases for pIC50, answers given:
{"substance_smiles": "CC(C)[C@H]1C(=O)O[C@H](C)[C@H](NC(=O)c2c3nc4c(C(=O)N[C@@H]5C(=O)N[C@H](C(C)C)C(=O)N6CCC[C@H]6C(=O)N(C)CC(=O)N(C)[C@@H](C(C)C)C(=O)O[C@@H]5C)ccc(I)c4oc-3c(I)c(=O)c2N)C(=O)N[C@H](C(C)C)C(=O)N2CCC[C@H]2C(=O)N(C)CC(=O)N1C", "experimental_target": "L02", "reported_result": 5.82}
{"substance_smiles": "CC(C)[C@H]1C(=O)O[C@H](C)[C@H](NC(=O)c2c3nc4c(C(=O)N[C@@H]5C(=O)N[C@H](C(C)C)C(=O)N6CCC[C@H]6C(=O)N(CO)CC(=O)N(C)[C@@H](C(C)C)C(=O)O[C@@H]5C)ccc(Br)c4oc-3c(Br)c(=O)c2N)C(=O)N[C@H](C(C)C)C(=O)N2CCC[C@H]2C(=O)N(C)CC(=O)N1C", "experimental_target": "L02", "reported_result": 4.88}

**Query** Look up pIC50 for this compound: CC(C)[C@H]1C(=O)O[C@H](C)[C@H](NC(=O)c2c3nc4c(C(=O)N[C@@H]5C(=O)N[C@H](C(C)C)C(=O)N6CCC[C@H]6C(=O)N(C)CC(=O)N(C)[C@@H](C(C)C)C(=O)O[C@@H]5C)ccc(I)c4oc-3cc(=O)c2N)C(=O)N[C@H](C(C)C)C(=O)N2CCC[C@H]2C(=O)N(C)CC(=O)N1C
**Result** 5.77
